- Test protocol: Fluorescence excitation/emission maxima and relative response per gram (luminescence spectrometer)
- Assay type: physicochemical
- Condition summary: scaled so that fluorescein-Na = 1,000,000
Property measured: Relative Response/g

(1) c1ccc(C2=NCCN2)cc1 [2-Phenyl-2-imidazoline, reference compound]
(2) O=C1CCC(C(=O)O)N1 (stereo not drawn) [2-Pyrrolidone-5-carboxylic acid, reference compound]
Exam item: Problem: Given the entries 1 and 2 , determine which has the lower reported Relative Response/g. // return label of chosen record
Marked response: 2

====

- Test protocol: Fluorescence excitation/emission maxima and relative response per gram (luminescence spectrometer)
- Assay type: physicochemical
- Condition summary: scaled so that fluorescein-Na = 1,000,000
- Description: The appropriate alkyl or aryl amine (0.05 moles) was weighed into a 100 mL round-bottom flask equipped with a magnetic stirrer and containing 15 mL of dry methanol. […] Their UV-vis/fluorescence properties were evaluated with a fluorospectrometer (Spectramax from Molecular Devices) yielding data as described in Table 2 in the Examples. […] Fluorescence data was acquired with a Perkin-Elmer LS50B Luminescence spectrometer. […]
Property measured: Relative Response/g

(I) COC(=O)C1CC(=O)N(CCNC(=O)C2CC(=O)N(CCNC(=O)C3CC(=O)N(CCSSCCN4CC(C(=O)NCCN5CC(C(=O)NCCN6CC(C(=O)OC)CC6=O)CC5=O)CC4=O)C3)C2)C1 (centres unmarked)
(II) COC(=O)C1CC(=O)N(CCNC(=O)C2CC(=O)N(CCNC(=O)C3CC(=O)N(CCNC(=O)C4CC(=O)N(CCN5CC(C(=O)NCCN6CC(C(=O)NCCN7CC(C(=O)NCCN8CC(C(=O)OC)CC8=O)CC7=O)CC6=O)CC5=O)C4)C3)C2)C1 (centres unmarked)
Exam item: Lab note: check whether I or II has the lower measured Relative Response/g. When you have decided, please share the label of that item.
Marked response: I

====

- Test protocol: Fluorescence excitation/emission maxima and relative response per gram (luminescence spectrometer)
- Type: physicochemical
- Condition summary: scaled so that fluorescein-Na = 1,000,000
Property measured: Relative Response/g

(a) COC(=O)C1CC(=O)N(CCSSCCN2CC(C(=O)OC)CC2=O)C1 (stereo not drawn) [Compound 31]
(b) COC(=O)C1CC(=O)N(CCNC(=O)C2CC(=O)N(CCN3CC(C(=O)NCCN4CC(C(=O)OC)CC4=O)CC3=O)C2)C1 (stereo not drawn) [Compound 40]
(c) COC(=O)C1CC(=O)N(CCNC(=O)C2CC(=O)N(CCSSCCN3CC(C(=O)NCCN4CC(C(=O)OC)CC4=O)CC3=O)C2)C1 (stereo not drawn) [Compound 33]
Exam item: Using measured Relative Response/g, arrange the compounds from above in descending sequence. Rank them, then answer with their labels in that order.
Marked response: c, b, a
(c: 391.7, b: 66.4, a: 18.7)

(A) NCCNC(=O)C1CC(=O)N(CCNC(=O)C2CC(=O)N(CCNC(=O)C3CC(=O)N(CCN4CC(C(=O)NCCN5CC(C(=O)NCCN6CC(C(=O)NCCN)CC6=O)CC5=O)CC4=O)C3)C2)C1 (stereo not drawn) [Compound 43]
(B) COC(=O)C1CC(=O)N(CCN2CC(C(=O)OC)CC2=O)C1 (stereo not drawn) [Compound 38]
Exam item: Looking at A and B , which one comes out lower in Relative Response/g terms? To answer, give the label that identifies your chosen option.
Marked response: B
